Assay: Lapatinib pharmacokinetics and uptake in rat cerebrospinal fluid (CSF)
Assay type: in vivo, rats
Conditions: male, Wistar, rat, cerebrospinal fluid, oral, lapatinib 100 mg/kg + elacridar, 6 h; read-out: Clapatinib in CSF, S
outcome_measure: concentration at 6 h (ng/mL)
Please give a number only; it is taken to be in ng/mL.

Ask: Look at this compound and give its reported concentration at 6 h. CS(=O)(=O)CCNCc1ccc(-c2ccc3ncnc(Nc4ccc(OCc5cccc(F)c5)c(Cl)c4)c3c2)o1
Result: 4.27

###

Test: Lapatinib pharmacokinetics and uptake in rat brain tissue (BT);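 also: brain concentration corrected for residual brain blood by the Fridén method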
Assay type: in vivo, rats
Conditions: male, Wistar, rat, brain tissue homogenate, po, 100 mg/kg, lapatinib p.o. 100 mg/kg alone, 2 h; read-out: BT corr (BT homogenate corrected), single rat
outcome_measure: concentration at 2 h (ng/mL)
Numeric answer only, unit ng/mL assumed.

Ask: Any idea what concentration at 2 h was measured for CS(=O)(=O)CCNCc1ccc(-c2ccc3ncnc(Nc4ccc(OCc5cccc(F)c5)c(Cl)c4)c3c2)o1 ?
Result: 30.1
